Below, each of the molecules is paired with its reported IC50 value.
Molecular target: CCR4 (Homo sapiens)
Experiment: Calcium flow detected by FLIPR
Settings: CCR4/HEK293 cells, agonist CCL17, Fluo-4 calcium signal

Reference set (2 entries):
C[C@@H](Nc1cc(N2CC([C@H]3CCCN([C@H]4C[C@](C)(C(=O)O)C4)C3)C2)cnn1)c1ccc(Cl)cc1Cl: < 100 nM
CC(Nc1nc(N2CC(F)(C3CN(C4CC(C)(C(=O)O)C4)CCO3)C2)nc(C(F)F)c1Cl)c1ccc(Cl)cc1Cl (single isomer, unassigned) [Compound 66 isomer 3]: 100 to 500 nM

Return the recorded IC50 value; entry: Cc1nc(N2CC3C(C2)C3C2CN(C3CC(C)(C(=O)O)C3)CCO2)nc(NC(C)c2ccc(Cl)cc2Cl)c1Cl (single isomer, unassigned) [Compound 78 isomer 3]
< 100 nM

====

Assay: Pharmacokinetic test in rats
Type: in vivo, SD rats
Conditions: male, SD, rat, iv, plasma, i.v. 2.5 mg/kg
property measured: clearance (mL/min/kg)

Cc1nc(N2CC(C3CN(C4CC(C)(C(=O)O)C4)CCO3)C2)nc(NC(C)c2ccc(Cl)cc2Cl)c1Cl (single isomer, unassigned) [Compound 9 isomer 3]: 6.61
C[C@@H](Nc1cc(N2CC(C3CN(C4CC(C)(C(=O)O)C4)CCO3)C2)ccc1Cl)c1ccc(Cl)cc1Cl (single isomer, unassigned) [Compound 83 isomer 1]: 5.53
Cc1nc(N2CC3C(C2)C3C2CN(C3CC(C)(C(=O)O)C3)CCO2)nc(NC(C)c2ccc(Cl)cc2Cl)c1Cl (single isomer, unassigned) [Compound 78 isomer 3]: 9.22
Cc1nc(N2CCC(C3CN(C4CC(C)(C(=O)O)C4)CCO3)CC2)nc(NC(C)c2ccc(Cl)cc2Cl)c1Cl (single isomer, unassigned) [Compound 73 isomer 3]: 9.19
Cc1nc(N2CC(F)(C3CN(C4CC(C)(C(=O)O)C4)CCO3)C2)nc(N[C@H](C)c2ccc(Cl)cc2Cl)c1Cl (single isomer, unassigned) [Compound 64 isomer 3]: 6.85

====

Below, each of the molecules is paired with its reported IC50 value.
Target: CCR4 (Homo sapiens, UniProt P51679)
Sequence (P51679 1-360): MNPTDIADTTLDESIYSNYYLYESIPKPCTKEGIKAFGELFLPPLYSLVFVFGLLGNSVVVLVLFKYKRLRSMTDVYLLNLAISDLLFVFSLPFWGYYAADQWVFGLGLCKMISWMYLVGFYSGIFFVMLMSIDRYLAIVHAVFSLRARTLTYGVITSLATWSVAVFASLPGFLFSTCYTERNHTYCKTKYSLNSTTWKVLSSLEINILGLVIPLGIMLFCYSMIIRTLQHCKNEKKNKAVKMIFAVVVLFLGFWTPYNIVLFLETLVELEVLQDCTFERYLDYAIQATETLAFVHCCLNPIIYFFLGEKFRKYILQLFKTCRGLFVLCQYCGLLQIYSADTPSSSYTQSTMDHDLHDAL
Assay: Calcium flow detected by FLIPR
Settings: CCR4/HEK293 cells, agonist CCL17, Fluo-4 calcium signal
Protocol: CCR4/HEK293 cells were added to a 384-well cell culture plate (Greiner #781946) at a rate of 20 μL/well (20,000 cells/well) and incubated overnight in a 37° C., 5% CO2 incubator (Incubator, Thermo). […] The 384-well culture plate was placed in FLIPR ([…]), 10 μL of 6X agonist CCL17 was added by using an automatic loader, and the fluorescence signal was read immediately. […]

Cc1nc(N2CC(F)(C3CN(C4CC(C(=O)O)C4)CCO3)C2)nc(N[C@H](C)c2ccc(Cl)cc2Cl)c1Cl (single isomer, unassigned) [Compound 84 isomer 1]: 100 to 500 nM
C#Cc1ccc(C(C)Nc2nc(N3CC(C4CN(C5CC(C)(C(=O)O)C5)CCO4)C3)nc(C)c2Cl)c(Cl)c1 (single isomer, unassigned) [Compound 28 isomer 1]: < 100 nM
C[C@@H](Nc1cc(N2CCC(C3CN(C4CC(C)(C(=O)O)C4)CCO3)CC2)nc2ccnn12)c1ccc(Cl)cc1Cl (single isomer, unassigned) [Compound 111]: < 100 nM
C[C@@H](Nc1cc(N2CCC(C3CN(CCO)CCO3)CC2)nc2ccnn12)c1ccc(Cl)cc1Cl (stereo partly drawn) [Compound 112]: < 100 nM
Cc1nc(C#CC2CCCN(C3CC(C)(C(=O)O)C3)C2)nc(NC(C)c2ccc(Cl)cc2Cl)c1Cl (single isomer, unassigned) [Compound 18 isomer 2]: < 100 nM

Return the recorded IC50 value; entry: CC(Nc1nc(N2CC(C3CN(C4CC(C)(C(=O)O)C4)CCO3)C2)ncc1Br)c1ccc(Cl)cc1Cl (single isomer, unassigned) [Compound 37 isomer 2]
100 to 500 nM

Return the recorded IC50 value; entry: C[C@@H](Nc1cc(N2CC(C3CN(C4CC(C)(C(=O)O)C4)CCO3)C2)ccc1Cl)c1ccc(Cl)cc1Cl (single isomer, unassigned) [Compound 83 isomer 1]
< 100 nM

Return the recorded IC50 value; entry: C[C@@H](Nc1nc(N2CC(C3CN(C4CC(C)(C(=O)O)C4)CCO3)C2)nc2ccsc12)c1ccc(Cl)cc1Cl (single isomer, unassigned) [Compound 54 isomer 1]
100 to 500 nM

Return the recorded IC50 value; entry: C#Cc1cc(Cl)ccc1C(C)Nc1nc(N2CC(C3CN(C4CC(C)(C(=O)O)C4)CCO3)C2)nc(C)c1Cl (single isomer, unassigned) [Compound 30 isomer 1]
< 100 nM
